Reference source: patent US11661430B2

test method notes: Assay C: Hepatocyte clearance
Assay type: in vitro ADME, human
assay conditions: hepatocyte suspension, 1 μM test compound, 5% species serum, six hours
endpoint name: human Hepatocytes [% Qh] (% Qh)

{"entry smiles": "NC(=O)c1csc2ncn(Cc3nnn(C[C@H](O)c4cc5ccccc5s4)n3)c(=O)c12", "human Hepatocytes [% Qh] / % Qh": 20}
{"entry smiles": "N#Cc1cc2ccc([C@@H](O)Cn3nnc(Cn4cnc5scc(C(N)=O)c5c4=O)n3)cc2o1", "human Hepatocytes [% Qh] / % Qh": 19}
{"entry smiles": "NC(=O)c1csc2ncn(Cc3nnn(C[C@H](O)c4cc5cc(F)ccc5o4)n3)c(=O)c12", "human Hepatocytes [% Qh] / % Qh": 26}

a = NC(=O)c1csc2ncn(Cc3nnn(C[C@H](O)c4cc5ccc(F)cc5s4)n3)c(=O)c12
b = NC(=O)c1csc2ncn(Cc3nnn(C[C@H](O)c4cc5cc(F)c(F)cc5o4)n3)c(=O)c12
Record comparison, field human Hepatocytes [% Qh]: mark the lower of a and b . Your answer should be the label attached to the chosen record.
b

* * *

test method notes: Assay C: Hepatocyte clearance
Format: in vitro ADME, human
assay conditions: hepatocyte suspension, 1 μM test compound, 5% species serum, six hours
Reported human Hepatocytes [% Qh] values follow for various compounds

For orientation, consider the following solved cases.
{"entry smiles": "NC(=O)c1csc2ncn(Cc3nnn(C[C@H](O)c4ccc(Br)cc4)n3)c(=O)c12", "result": "<4 % Qh"}
{"entry smiles": "N#Cc1ccc([C@@H](O)Cn2nnc(Cn3cnc4scc(C(N)=O)c4c3=O)n2)s1", "result": "<4 % Qh"}

Consider the additional compound presented here.
Sample NC(=O)c1csc2ncn(Cc3nnn(C[C@H](O)c4ccc(Cl)cc4)n3)c(=O)c12 — what was its human Hepatocytes [% Qh]?
<4 % Qh
